Just for reference, paper PMC11855827 is where these values come from.

test system: C. elegans; assay: microbe, parasite or virus in culture; conditions: Caenorhabditis elegans, 24 h, read-out: Percentage of motility inhibition 24 h, Table S2, C. elegans SS assay, 110 μM, 24 h, averages of 4 data points
Entries annotated with measured inhibition at 110 µM
Give your result as the value with the unit written after it.

Record Cc1cc2c(C(C)C)c(O)c(O)c(C=O)c2c(O)c1-c1c(C)cc2c(C(C)C)c(O)c(O)c(C=O)c2c1O [Gossypol] has C. elegans inhibition at 110 µM equal to 26%

GET /values?item= Nc1ccc(S(=O)(=O)Nc2ncccn2)cc1 [Sulfadiazine] &system= C. elegans returns inhibition at 110 µM: 7%

----------
test system: C. elegans; assay: microbe, parasite or virus in culture; conditions: Caenorhabditis elegans, 0 h, read-out: Percentage of motility inhibition 0 h, Table S2, C. elegans SS assay, 110 μM, 0 h, averages of 4 data points
This section presents compounds with their documented inhibition at 110 µM values.
Your answer should be a plain number; it is taken to be in %.

inhibition at 110 µM measured on C/C=C1/[C@H](O[C@@H]2O[C@H](CO)[C@@H](O)[C@H](O)[C@H]2O)OC=C(C(=O)OC)[C@H]1CC(=O)OCCc1ccc(O)c(O)c1 = 0

Reported inhibition at 110 µM of C=C1C[C@]23C[C@@]1(O)CC[C@H]2[C@@]12C=C[C@H](O)[C@@](C)(C(=O)O1)[C@H]2[C@@H]3C(=O)O : 17

Memo: O=C[C@H](O)[C@@H](O)[C@H](O)CO , reported inhibition at 110 µM: 17

Quick note, inhibition at 110 µM for CC(=O)O[C@@H]1[C@H]2[C@H]3C[C@H]4C5=Nc6ccccc6[C@]51C[C@@H]2N4[C@H](C)C3C=O (stereo partly shown) landed at 0

----------
test system: C. elegans; details: Table S2, C. elegans SS assay, 110 μM, 0 h, averages of 4 data points
Percentage of motility inhibition 0 h for assorted compounds
Field: numeric (%). Do not append units.

Illustrative cases are given below, each with its answer.
{"columns": ["COMPOUND", "TARGET", "EXPERIMENTAL READOUT", "QUANTITATIVE READOUT"],
 "data": [
  ["NCC[C@H](O)C(=O)N[C@@H]1C[C@H](N)[C@@H](O[C@H]2O[C@H](CN)[C@@H](O)[C@H](O)[C@H]2O)[C@H](O)[C@H]1O[C@H]1O[C@H](CO)[C@@H](O)[C@H](N)[C@H]1O.O=S(=O)(O)O.O=S(=O)(O)O [Amikacin (sulfate)]", "C. elegans", "Percentage of motility inhibition 0 h", 0],
  ["C/C=C(\\C)C(=O)O[C@H]1[C@H](O)[C@]2(COC(C)=O)[C@@H](O)C[C@]3(C)C(=CC[C@@H]4[C@@]5(C)CC[C@H](O[C@@H]6O[C@H](C(=O)O)[C@@H](O)[C@H](O)[C@H]6O)[C@@](C)(CO)[C@@H]5CC[C@]43C)[C@@H]2CC1(C)C", "C. elegans", "Percentage of motility inhibition 0 h", 20],
  ["C[C@@H]1O[C@@H](O[C@H]2[C@H](Oc3cc(O)c4c(c3)O[C@H](c3ccc(O)c(O)c3)CC4=O)O[C@H](CO)[C@@H](O)[C@@H]2O)[C@H](O)[C@H](O)[C@H]1O", "C. elegans", "Percentage of motility inhibition 0 h", 6]
]}

Notebook: C=C1[C@H](CO)[C@@H](O)C[C@@H]1n1cnc2c(=O)[nH]c(N)nc21.O [Entecavir (monohydrate)] , Percentage of motility inhibition 0 h read as 18
